src = patent US20250049891A1

Assay Summary: Plasma stability test, rat plasma
Applied Conditions: rat, plasma
Experimental Endpoint: remaining at 0.5 h, 1 μM

Previously resolved entries follow.
[[record]]
compound = "Cc1cc(CC(NC(=O)C(CC(=O)O)NC(=O)CN)C(=O)NC(Cc2ccc(O)cc2)C(=O)NC(Cc2ccccc2)C(N)=O)cc(C)c1O (stereo not drawn)"
experimental_endpoint = "remaining at 0.5 h, 1 μM"
observed_measurement = "> 100%"

[[record]]
compound = "CC(C)CC(NC(=O)CN)C(=O)NC(Cc1ccc(O)cc1)C(=O)NC(Cc1ccc(O)cc1)C(=O)N(C)C(Cc1ccccc1)C(N)=O (stereo not drawn)"
experimental_endpoint = "remaining at 0.5 h, 1 μM"
observed_measurement = "> 100%"


Shifting focus to the compound that follows.
Determine its reported remaining at 0.5 h, 1 μM: CC(C)C[C@H](NC(=O)CN)C(=O)N[C@@H](Cc1ccc(O)cc1)C(=O)N[C@@H](Cc1ccc(O)cc1)C(=O)N[C@@H](Cc1ccccc1)C(=O)O [APN5, NH2-GLYYF-OH, reference compound]
83.1%

====

Assay Summary: in vitro
Applied Conditions: rat, plasma
Numbered stars: 1 amine (or outer) side, 2 acyl side, 3 side chain; on linkers, the order of the positions; unused ones are H or OH. Bridge positions count the residues as written; N and C are the ends. Square brackets hold non-standard residues; d marks the D form. Peptide text beside a SMILES is read from it. ξ: configuration not given here. ξhAlg = O=C(C(CCC=[*:3])N[*:1])[*:2]; AllylGly = C=CC[CH](N)C(=O)O
Experimental Endpoint: remaining at 2 h, 1 μM (%)
Numbers only here, please. The scale is %.

[[record]]
molecule = "CC(C)CC(NC(=O)CN)C(=O)N(C)C(Cc1ccc(O)cc1)C(=O)NC(Cc1ccc(O)cc1)C(=O)NC(Cc1ccccc1)C(N)=O (stereo not shown) [DS-56, NH2-GLY(N-Me)YF-NH2]"
unit_label = "%"
observed_measurement = 29.4

[[record]]
molecule = "CC(C)CC1NC(=O)C(N)CC/C=C\\CC(C(N)=O)NC(=O)C(Cc2ccc(O)cc2)NC(=O)C(Cc2ccc(O)cc2)NC1=O (stereo not shown) [DS-73] (H-[ξhAlg]LYY[AllylGly]-NH2; staple (Z) 1-5; configuration not given here)"
unit_label = "%"
observed_measurement = 89.3


Okay, next one:
Return value of remaining at 2 h, 1 μM for input NCCCCC(NC(=O)C(Cc1ccc(O)cc1)NC(=O)C(Cc1ccc(O)cc1)NC(=O)C(CC(=O)O)NC(=O)CN)C(N)=O (stereo not shown) [DS-35, NH2-GDYYK-NH2] (H-GDYYK-NH2; configuration not given here) , no commentary.
89.4

====

Target System: CYP3A4 (Homo sapiens)
Sequence (P08684 whole entry): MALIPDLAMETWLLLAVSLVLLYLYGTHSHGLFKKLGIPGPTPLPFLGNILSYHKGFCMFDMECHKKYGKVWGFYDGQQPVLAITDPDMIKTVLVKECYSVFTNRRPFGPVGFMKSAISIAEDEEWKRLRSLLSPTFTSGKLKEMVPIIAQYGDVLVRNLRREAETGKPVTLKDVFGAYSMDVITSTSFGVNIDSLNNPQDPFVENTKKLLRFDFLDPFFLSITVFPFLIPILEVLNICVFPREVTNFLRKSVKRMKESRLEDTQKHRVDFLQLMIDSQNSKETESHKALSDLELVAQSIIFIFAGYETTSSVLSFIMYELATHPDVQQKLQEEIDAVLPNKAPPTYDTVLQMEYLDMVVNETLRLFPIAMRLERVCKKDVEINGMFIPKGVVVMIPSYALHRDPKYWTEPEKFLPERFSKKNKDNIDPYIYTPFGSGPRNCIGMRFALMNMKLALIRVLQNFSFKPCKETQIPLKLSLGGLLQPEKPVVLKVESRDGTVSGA
Applied Conditions: microsomes, 10 µM
Numbered stars: 1 amine (or outer) side, 2 acyl side, 3 side chain; on linkers, the order of the positions; unused ones are H or OH. Bridge positions count the residues as written; N and C are the ends. Square brackets hold non-standard residues; d marks the D form. Peptide text beside a SMILES is read from it. ξ: configuration not given here. ξhAlg = O=C(C(CCC=[*:3])N[*:1])[*:2]; AllylGly = C=CC[CH](N)C(=O)O
Recorded measurements of CYP inhibition (% of control activity) CYP3A4, one per entry

[[record]]
compound = "CC(C)CC1NC(=O)C(N)CC/C=C\\CC(C(N)=O)NC(=O)C(Cc2ccc(O)cc2)NC(=O)C(Cc2ccc(O)cc2)NC1=O (stereo not drawn) [DS-73] (H-[ξhAlg]LYY[AllylGly]-NH2; staple (Z) 1-5; configuration not given here)"
observed_measurement = "80.5 % of control activity"


Let's switch to this compound now.
Output reported CYP inhibition (% of control activity) CYP3A4 of the compound CC(C)CC(NC(=O)CN)C(=O)N(C)C(Cc1ccc(O)cc1)C(=O)NC(Cc1ccc(O)cc1)C(=O)NC(Cc1ccccc1)C(N)=O (stereo not drawn) [DS-56, NH2-GLY(N-Me)YF-NH2] on CYP3A4 (Homo sapiens).
9.2 % of control activity
